System: OVCAR-3 ovarian
Assay: NCI-60 one-dose screen, 48 h
Conditions: 10 µM unless noted
The panel holds about 83,000 compounds, 20% with a hit somewhere; the sample as a whole holds those more often. Calls of active or inactive are those of the source. Rule for the calls: active = growth percent below 10; inactive = the rest.
Hello, when you answer, please use one of the following outcomes: true for active, false for inactive

ENTRY_SMILES	CLASS_ASSIGNMENT
COc1ccc(OC)c(Cn2cc3c(c2)-c2oncc2CC3)c1	true
CC1=NN(c2cccc(Cl)c2)C(=O)/C1=C\c1cn(-c2nc(N3CCOCC3)nc(N3CCOCC3)n2)c2ccccc12	false
COC(=O)c1ccc2[nH]c(O)c(C(=Nc3ccc(N(C)C(=O)CN4CCN(C)CC4)cc3)c3ccc([N+](=O)[O-])cc3)c2c1	false
COc1cc2ncnc(-n3ncc4cc(NC(=O)Nc5ccccc5)ccc43)c2cc1OC	false

Inquiry: How was COc1nc(OC)nc(-c2cc(-c3cc(OC)c(OC)c(OC)c3)no2)n1 classified in this test?
Reply text: false

Inquiry: GET /call?item= Cc1c(Cc2ccccc2)c(=O)oc2c(C)c(OCC(=O)n3nc(C#N)cc3N)ccc12 returns the recorded outcome of this test.
Reply text: false

Inquiry: Hi team, can someone confirm the assay call for O=C(Nc1ccc(-n2cc(-c3ccncc3)c(-c3ccc(Cl)c(O)c3)n2)cc1)c1ccc(Cl)c(Cl)c1 ?
Reply text: false

Inquiry: Outcome logged for COc1ccc(-c2nc(N)n(C(=S)Nc3ccccc3)n2)cc1 in this assay:
Reply text: false

Inquiry: Name the outcome recorded for O=c1c(N=Nc2nccs2)c(-c2ccccc2)[nH]n1-c1nc(-c2ccccc2)cs1 in the assay.
Reply text: false

Inquiry: Hello, I am checking results. What call was entered for C=CCNC(=S)NNc1ccc([N+](=O)[O-])cn1 ?
Reply text: false

Inquiry: Name the outcome recorded for CC[n+]1c(C)ccc2cc(C)ccc21 in the assay.
Reply text: false

Inquiry: Check the results log: what was the call for COC(=O)/C=C/c1cc(O)c2oc(-c3ccc(O)c(O)c3)c(C(=O)OC)c2c1 ?
Reply text: false

Inquiry: Tell me the recorded outcome of this test for CCOc1ccc(Br)cc1/C=C(\C#N)c1ccc([N+](=O)[O-])cc1 .
Reply text: false

---

System: MCF7 breast
Experiment: NCI-60 one-dose screen, 48 h (100 = growth as untreated, 0 = no growth, -100 = all killed)
Conditions: 10 µM unless noted
Compounds without any hit were thinned out: in the full panel of roughly 83,000, 20% have a hit.
For each of the compounds below, state its growth.
One number for each entry, in %.

Answered examples (3):
ENTRY_SMILES	ASSAYED_SYSTEM	RESULT
C=CCNC(=S)NNc1ccc([N+](=O)[O-])cn1	MCF7 breast	88.4
Oc1ccc([S+](c2ccc(O)cc2)c2ccc(O)cc2)cc1	MCF7 breast	98.8
CC(=O)N(N=O)c1ccc([N+](=O)[O-])cc1Cl	MCF7 breast	52.2

For every item in the list below, what is its measured growth?
1. OC(c1ccccc1)(c1ccccc1)C(F)(F)F
2. CCCCCCCCCCCCOC(=N)N(C)C
3. O=C(Nc1cccc(Cn2c(=O)[nH]c3ccc(Oc4ncccn4)cc3c2=O)c1)c1ccc(Cl)cc1
4. COC(=O)c1ccc2[nH]c(O)c(C(=Nc3ccc(N(C)C(=O)CN4CCN(C)CC4)cc3)c3ccc4c(c3)OCO4)c2c1
5. COc1ccc(Oc2[nH]n(C3=Nc4ccccc4Sc4ccccc43)c(=O)c2C#N)cc1

Reply text:
[104, 94.1, 28, 11.1, 101]

---

Tested on: OVCAR-5 ovarian
Assay: NCI-60 one-dose screen, 48 h (100 = growth as untreated, 0 = no growth, -100 = all killed)
Conditions: 10 µM unless noted
Procedure: Growth inhibition of the OVCAR-5 human tumor cell line is measured as a screen for anti-cancer activity. Cells are grown in 96 well plates and exposed to the test compound for 48 hours. Compounds are tested at a single concentration, which is 10^-5 M for most compounds. The reported endpoint is percent growth (GI% or GIPRCNT), where numbers from 0 - 100% represent growth inhibition, and numbers from -100% - 0 represent cell death. For example, a value of 40 represents 60% growth inhibition. […]
About 83,000 compounds went through this panel and 20% of them were active in at least one assay; those are over-represented in the sample as a whole.
Field: growth. Provide a value for each of the compounds that follow.
Answers are plain numbers, in %.

Hello, I would appreciate it if you could give growth for each entry below.
1. COc1ccc(-c2cc(C#N)c(NNC(C)=O)[nH]2)cc1
2. COc1cc2cc3cc4cc(OC)c(OC)cc4c(C)[n+]3cc2cc1OC (tested in a mixture with another compound)
3. CC(=O)NCCN
4. COc1ccc(Nc2c3ccccc3nc3ccccc23)cc1
5. CCCC(=O)NNc1[nH]c(-c2ccc(OC)cc2)cc1C(=O)OCC
6. CC(C)(C)c1ccc([I+]c2ccc(C(C)(C)C)cc2)cc1

Reply text:
[94.7, 104, 102, 36.4, 95.7, 49.6]

For each entry beneath this line, provide reported growth.
1. O=C1c2ccccc2CCc2ccccc21
2. CCC(C)C1NC(=O)C(CC(C)C)NC(=O)C(C)NC(=O)C(C(C)C)NC(=O)C(CCCCN)NC(=O)C(CC(C)C)NC(=O)C(C(C)C)NC(=O)[C@H](C)NC(=O)C(C(C)CC)NC(=O)C(CCCN=C(N)N)NC(=O)C(CCCCN)NC(=O)C(CCCN=C(N)N)NC(=O)C(CCCCN)NC(=O)C([C@H](C)CC)NC(=O)C(CCCCN)NC1=O (some centres undefined)
3. CCCC(=O)NNc1[nH]c(-c2cc(OC)c(OC)c(OC)c2)cc1C(=O)OCC

Reply text:
1. 93.7
2. 52.6
3. 92.8

---

System: MCF7 breast
Assay: NCI-60 one-dose screen, 48 h
Settings: 10 µM unless noted
Compounds without any hit were thinned out: in the full panel of roughly 83,000, 20% have a hit. The source made the active and inactive calls. Rule for the calls: active = growth percent below 10; inactive = the rest.
Please answer using one outcome listed in active, inactive

MOLECULE	CLASS_ASSIGNMENT
O=Nc1ccc(O)c2ccccc12	active

Inquiry: What classification did CC(O)C(N)=O (stereo not given) end up with in this test?
Reply text: inactive

Inquiry: Query: recorded result category for Cc1nn(-c2ccccc2)c(N)c1N=C1NC(=O)/C(=C/c2ccc(Cl)cc2)S1 in this test
Reply text: inactive

Inquiry: Per the records of this test, what outcome belongs to CCS(=O)(=O)OCCO[C@H]1Cc2cc3ccc(=O)oc3cc2OC1(C)C ?
Reply text: inactive

Inquiry: Lab log entry: OCCN1CCN(CC/C=C2/c3ccccc3Sc3ccc(C(F)(F)F)cc32)CC1 — outcome as called in the assay?
Reply text: inactive

---

Tested on: IGROV1 ovarian
Assay: NCI-60 one-dose screen, 48 h (100 = growth as untreated, 0 = no growth, -100 = all killed)
Settings: 10 µM unless noted
This is part of a sample that, as a whole, favours compounds with a hit. Of some 83,000 tested, about 20% had one in any assay.
MEASURE_NAME: growth (%)
Give bare numbers, in %.

# annotated cases, reported growth shown
MOLECULE	growth [%]
N#Cc1ccc(NC2c3ccccc3CC2O)cc1 (stereo not given)	116
CCCCCCCCCC[N+](C)(C)N	83.8
COc1cc(CCNc2cnc3cc(N)cc(N)c3n2)cc(OC)c1	103
O=C(NCCCl)Nc1nccnc1OCc1ccc(F)cc1	107

Hi there! I need growth for each item below, if you can.
1. O=C(NCCO)C(F)(F)F
2. COc1ccccc1C(=O)Nc1cccc(-c2cc(=O)c3c(OC)c(OC)c(OC)cc3o2)c1
3. CC(C)CSc1nc(-c2ccc(F)cc2)c(C#N)c(N2CCCCC2)n1
4. Cc1ncc(C(=O)Nc2ccc(CN3CCN(C)CC3)c(C(F)(F)F)c2)cc1C#Cc1c(N)ncc2ccccc12
5. Cn1c2ccccc2c2ccccc21
6. Oc1ccc(N=Nc2ccc(N=Nc3ccccc3)cc2)cc1
7. COc1cc2c(/C=C3\C(=O)Nc4ccc(Br)cc43)c(Cl)n(C)c2cc1C
8. COc1cc2cn3c4ccc(O)cc4[nH]c(=O)c3c2cc1OC

Reply text:
1: 106; 2: 42.9; 3: 104; 4: -77.1; 5: 102; 6: 53.6; 7: -10.2; 8: -3.23

Consider the following items and state reported growth for each.
1. COC(=O)C(N)CC(C)C (stereo not given)
2. COc1ccc(C(=O)CN2C(=O)NC(c3ccccc3)(c3ccccc3)C2=O)cc1
3. C/C=C(/C)C(=O)OC1C=C(CO)C(=O)C(OC(=O)C2(C)OC2C)C1C(C)C (stereo not given)

Reply text:
[115, 115, -31.2]

---

Tested on: LOX IMVI melanoma
Assay: NCI-60 one-dose screen, 48 h
Conditions: 10 µM unless noted
The panel holds about 83,000 compounds, 20% with a hit somewhere; the sample as a whole holds those more often. Active and inactive are the calls of the source. The calls were made as follows: active = growth percent below 10; inactive = the rest.
Hi there, use one of these labels in your reply, thanks! True (active), False (inactive)

MOLECULE	CLASS_ASSIGNMENT
CCn1cc(C(=O)O)c(=O)c2cc(F)c(N3CCN(S(=O)(=O)c4ccc(Cl)cc4)CC3)cc21	False
CCOC(=O)c1c(C)oc2ncnc(Nc3ccc(NC(=O)Nc4cccc(Cl)c4)cc3)c12	False

Inquiry: In this assay, the call recorded for COC1(OC)N=C(N)C2(C#N)C3(C(=O)Nc4ccccc43)C12C#N (centres undefined) was what?
Reply text: False

Inquiry: Hi, sorry to bother you, what did the test record for Cc1ncc(C(=O)Nc2ccc(CN3CCN(C)CC3)c(C(F)(F)F)c2)cc1C#Cc1cnc(NC2CC2)c2ncccc12 ?
Reply text: True

Inquiry: What was the test verdict on N=C(N)N=Nc1ccc(NN=C(N)N)c2ccccc12 ?
Reply text: False

Inquiry: In this assay, the call recorded for CCOC(=O)c1c2c(cn1Cc1ccccc1)-c1oncc1CC2 was what?
Reply text: False

Inquiry: Can you look up the reported call for COc1cccc2c1n([O-])c1cccc(OC)c1[n+]2=O for me?
Reply text: False

Inquiry: Which outcome did this test record for the molecule COC(=O)C(Cc1cnc[nH]1)N1CC(=O)N2[C@@H](c3ccccc3)SC[C@H]2C1=O (some centres undefined) ?
Reply text: False

Inquiry: What did this assay record as the result for Nc1ccc(N=Nc2ccccc2)c2cc(S(=O)(=O)O)ccc12 ?
Reply text: False
